Reported property: melting point

Would you please look over these solved cases?
O=C(NCCO)/C(=C/c1ccc(C2CC2)cc1)NC(=O)c1ccc(OCCc2ccccc2)cc1	113 to 115 °C
NC(=O)COc1cc(C(F)(F)F)cc(C(F)(F)F)c1	139 to 141 °C
COc1cccc2c1OCN(CCc1ccccc1)C2	63 to 66 °C
FC(F)(F)Oc1ccc2nc(-c3ccccc3)[nH]c2c1	208 to 210 °C
CC(C)=NOCC(=O)O	76 °C

Below: the item to evaluate.
[in] Tell us which melting point value is on record for CN1CC2(COc3cc4c(cc32)OCO4)c2c(Br)cccc21 (stereo unspecified)
[out] 155 to 157 °C

====

Reported property: melting point (°C)

[P] CNC(=S)NCc1cc(-c2ccccc2)no1
[Q] CCCCCCCCc1ccc(OC(=O)c2ccc([C@H]3CC[C@H](CCC)C3)cc2)cc1 (relative stereo)
[in] For P and Q , which recorded melting point is lower? To answer, give the label that identifies your chosen option.
[out] Q

====

melting point overview

Would you please look over these solved cases?
N#Cc1ccc([C@H]2[C@@H]3C(=O)N(Cc4ccc5c(c4)OCO5)C(=O)[C@@H]3[C@@H]3CSCN32)cc1 (racemic)	142 to 143 °C
Cc1nc(NCCSCc2nc[nH]c2C)[nH]c(=O)c1CCc1ccccc1	222 to 224 °C
COc1ccc(S(N)(=O)=O)cc1C(O)CCl (stereo not given)	112 °C

Below: the item to evaluate.
[in] Tell us which melting point value is on record for `CC1(C)CC(=C(c2ccccc2)c2ccc(OCCO)cc2)CC(C)(C)C1`
[out] 131 to 132 °C

====

Reported property: melting point

Would you please look over these solved cases?
CCOc1ncc(N)cc1C(=O)O	260 to 262 °C
COc1cc(N)c(Cl)cc1C(=O)NCC1CCN(CCCCCN2C(=O)c3ccccc3C2=O)CC1	58 to 61 °C
CO[C@@H](C)[C@](C)(OC)c1cc(F)cc(OCc2ccc3ccccc3c2)c1 (racemic)	58 to 59 °C
COC(=O)Cc1ccc2oc(-c3ccc(OC)c(OC)c3)c(SC)c2c1	91 °C

[in] Tell us which melting point value is on record for `O=C(Nc1nc(C(Cl)(Cl)Cl)ns1)c1ccccc1Cl`
[out] 142 °C

[in] Tell us which melting point value is on record for O=C(NC1C=NC=CC1=O)c1ccccc1F (centres undefined)
[out] 116 to 117 °C

[in] Tell us which melting point value is on record for `COc1ccc([N+](=O)[O-])c(NCCO)n1`
[out] 121 to 122 °C

[in] Tell us which melting point value is on record for `Clc1ccc(-n2nc3c(c2Br)CCC3)cc1`
[out] 109 to 112 °C

[in] Tell us which melting point value is on record for O=C1NC(C(=O)NCCO[N+](=O)[O-])C(c2ccco2)S1 (centres undefined)
[out] 117 to 118 °C

[in] Tell us which melting point value is on record for `N#Cc1cccc(CNc2cc(C(N)=O)c([N+](=O)[O-])cc2[N+](=O)[O-])c1`
[out] 228 to 230 °C

[in] Tell us which melting point value is on record for COc1cccc2c1CCC21OC(=O)c2ccccc21 (centres undefined)
[out] 111 to 112 °C

[in] Tell us which melting point value is on record for `CCn1nc(N)nc1NCCCOc1cccc(CN2CCCCC2)c1`
[out] 116 to 118 °C

[in] Tell us which melting point value is on record for `CCOC(=O)C1(C(=O)OCC)COC2(CC(C)(C)N(C(C)=O)C(C)(C)C2)OC1`
[out] 75 to 77 °C

[in] Tell us which melting point value is on record for CC1CCc2ncc([N+](=O)[O-])cc2C1 (centres undefined)
[out] 50 to 52 °C

[in] Tell us which melting point value is on record for `COC(=O)C(=O)c1ccc(OCCOc2ccc3cccnc3c2)cc1`
[out] 92 to 94 °C

[in] Tell us which melting point value is on record for `CC(C)c1cc(Cl)nc(C(C)C)c1N`
[out] 53 to 56 °C

[in] Tell us which melting point value is on record for CC(C)(CNC(=O)Cc1ccccc1)NCC(O)c1cc(Cl)c(N)c(Cl)c1 (centres undefined)
[out] 96 to 98 °C

[in] Tell us which melting point value is on record for `COC(=O)[C@@H]1CSC(=S)N1CC(C)(C)S`
[out] 126 to 127 °C

[in] Tell us which melting point value is on record for `O=C(CN1CCC(c2noc3cc(F)ccc23)CC1)N1Cc2ccccc2C1`
[out] 184 to 185 °C

[in] Tell us which melting point value is on record for O=C(O)c1cccnc1N1CCN(CCOC2c3ccccc3CSc3ccccc32)CC1 (centres undefined)
[out] 217 to 218 °C

[in] Tell us which melting point value is on record for `CCc1c(N)c(C(N)=O)nn1Cc1cccnn1`
[out] 177 to 185 °C
